tested on: SspI; assay: Compatible solute assay: protection of SspI activity during heat treatment; type: biochemical; conditions: 400 mM sugar, 50° C. for 15 min
Record form. Attribute: protection of SspI activity. Fill in for each entry.
Give bare numbers, in %.

For orientation, consider the following solved cases.
[
  {
    "Compound": "OC[C@H]1O[C@H](O[C@H]2O[C@H](CO)[C@@H](O)[C@H](O)[C@H]2O)[C@H](O)[C@@H](O)[C@@H]1O [trehalose]",
    "Test Target": "SspI",
    "Metric Name": "protection of SspI activity",
    "Measure Unit": "%",
    "Test Value": 100
  },
  {
    "Compound": "OC[C@H]1O[C@@](CO)(O[C@H]2O[C@H](CO)[C@@H](O)[C@H](O)[C@H]2O)[C@@H](O)[C@@H]1O [sucrose]",
    "Test Target": "SspI",
    "Metric Name": "protection of SspI activity",
    "Measure Unit": "%",
    "Test Value": 100
  }
]

-- ask Given O=C[C@H](O)[C@@H](O)[C@H](O)[C@H](O)CO [glucose, reference compound] , state its recorded protection of SspI activity.
-- reply 100
